Molecular target: T1, ZFP SBS#1344 (synthetic)
T1 chain: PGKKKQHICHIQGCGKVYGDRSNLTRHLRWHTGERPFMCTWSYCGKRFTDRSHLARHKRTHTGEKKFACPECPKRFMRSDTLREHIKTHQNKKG
Experiment: EMSA
Details: tags: MBP fusion
measurement-kind: Kd (nM)
One number for each entry, in nM.

Item: CCGGGCGAC (dsDNA) DNA 1: CCGGGCGAC DNA 2: GTCGCCCGG | Kd: 2.28
